Quick list: log10(EC50) per entry.
System: RSV Long strain
assay-notes: Viral Cytopathic Effect (CPE) Assay
Type: cell-based
assay-conditions: human respiratory syncytial virus, 144 h; RSV Long strain (ATCC), cell viability after 6 days by Cell Counting kit-8
Record value = log10 of EC50 given in nM.

- molecule: "O=C1N(Cc2nc3cc(Cl)cc(F)c3n2[C@@H]2CCS(=O)(=O)C2)c2cnccc2C12CC2 [Example 9-2]"
  log10(EC50): -0.15
- molecule: "CN1CC(n2c(CN3C(=O)C4(CC4)c4ccncc43)nc3cc(Cl)ccc32)CC1=O (stereo not shown) [Example 8-1]"
  log10(EC50): 0.78
- molecule: "O=C1N(Cc2nc3cc(Cl)ccc3n2C2CCOC2)c2cnccc2C12CC2 (stereo not shown) [Example 2-14]"
  log10(EC50): 0.78
- molecule: "O=C1N(Cc2nc3cc(Cl)ccc3n2[C@H]2CCS(=O)(=O)C2)c2cnccc2C12CC2 [Example 3-2]"
  log10(EC50): 1.00
- molecule: "O=C1N(Cc2nc3cc(Cl)ccc3n2C2CNS(=O)(=O)C2)c2cnccc2C12CC2 (stereo not shown) [Example 15]"
  log10(EC50): 0.20
- molecule: "O=C1N(Cc2nc3cc(Cl)ccc3n2C2CCC(O)C2)c2cnccc2C12CC2 (stereo not shown) [Example 2-8]"
  log10(EC50): 1.04

In: Kindly state the measured log10(EC50) obtained for O=C1N(Cc2nc3cc(Cl)ccc3n2C2C[S+]([O-])C2)c2cnccc2C12CC2 (stereo not shown) [Example 5] with RSV Long strain.
Out: 0.70

In: Kindly state the measured log10(EC50) obtained for O=C1N(Cc2nc3cc(Cl)ccc3n2C2CS(=O)(=O)C2)c2cnccc2C12CC2 [Example 4-1] with RSV Long strain.
Out: 0.81

In: Kindly state the measured log10(EC50) obtained for O=C1N(Cc2nc3cc(Cl)ccc3n2C2CCS(=O)(=O)C2)c2cnccc2C12CC2 (stereo not shown) [Example 3-1] with RSV Long strain.
Out: 0.78

In: Kindly state the measured log10(EC50) obtained for CS(=O)(=O)[C@H]1C[C@H](n2c(CN3C(=O)C4(CC4)c4ccncc43)nc3cc(Cl)ccc32)C1 [Example 1-2] with RSV Long strain.
Out: 0.78

In: Kindly state the measured log10(EC50) obtained for O=C1N(Cc2nc3cc(Cl)ccc3n2C2CC3(C2)CS(=O)(=O)C3)c2cnccc2C12CC2 [Example 2-1] with RSV Long strain.
Out: 0.60

In: Kindly state the measured log10(EC50) obtained for O=C1CC(n2c(CN3C(=O)C4(CC4)c4ccncc43)nc3cc(Cl)ccc32)CCN1 (stereo not shown) [Example 2-10] with RSV Long strain.
Out: 0.70

Entry source: patent US9670211B2
